tested on: HL-60; assay: NCI tumour cell line growth inhibition, 48 h
Active and inactive are the calls of the source. Rule as the data show it: active = GI50 up to about 1.1 µM and inactive = higher.
readout_label: GI50

Field: example entries. Status: answers known.
>>> df
                                   molecule  readout_label                value
0  S=C(NCCCCCCNC(=S)Nc1c2ccccc2nc2ccccc12)Nc1c2ccccc2nc2ccccc12           GI50   77.1 µM (inactive)
1  N#Cc1ccc(/C=[N+](/C=c2ccc(=C=[N-])cc2)N(CCO)C2=NCCN2)cc1           GI50  > 100 µM (inactive)
2  CN1CCN(c2n[nH]c(=O)c3c2nnn3Cc2ccccc2)CC1           GI50  > 100 µM (inactive)
3  COC(=O)C(NC(=O)c1ccccc1)c1ccco1 (stereo unspecified)           GI50  > 100 µM (inactive)
4  CSc1ccc(/C=C2\N=C(c3ccccc3)N(c3nc4cc(C)c(C)cc4s3)C2=O)cc1           GI50   20.9 µM (inactive)

Input: Hello, I am looking for reported GI50 with HL-60 for COC(CC1(OC)OC(=O)C=C1N)OC (stereo unspecified) . Could you help?
Output: > 100 µM (inactive)
